# measured-on: T1, recombinant hMCAM-His (human, UniProt P43121 24-559)
# T1 chain: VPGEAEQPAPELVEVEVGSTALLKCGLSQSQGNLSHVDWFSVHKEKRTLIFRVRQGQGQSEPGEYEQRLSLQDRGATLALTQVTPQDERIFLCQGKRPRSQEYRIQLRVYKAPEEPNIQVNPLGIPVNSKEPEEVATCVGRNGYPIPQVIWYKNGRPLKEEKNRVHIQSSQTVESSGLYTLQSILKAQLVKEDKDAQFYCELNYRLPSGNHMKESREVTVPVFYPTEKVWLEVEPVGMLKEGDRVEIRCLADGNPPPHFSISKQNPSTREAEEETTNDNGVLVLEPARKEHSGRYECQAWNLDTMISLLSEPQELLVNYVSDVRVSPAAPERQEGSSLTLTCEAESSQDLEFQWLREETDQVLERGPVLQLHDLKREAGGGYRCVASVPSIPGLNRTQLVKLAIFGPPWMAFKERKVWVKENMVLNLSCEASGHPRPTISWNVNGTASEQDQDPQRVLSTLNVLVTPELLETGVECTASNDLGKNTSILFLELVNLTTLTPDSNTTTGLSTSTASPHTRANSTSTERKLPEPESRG
# test-summary: ForteBio Octet Red, antibody on anti-human Fc sensors, hMCAMHis analyte, 1:1 fit; affinity relative to rodent 2120, first Forte column
Listing: Fold over rodent (Forte) of selected binders

>  <binder>
humanized anti-MCAM antibody h2120_VH1 + h2120_VL1 (antibody, V domains shown, Human IgG1 / human kappa; also called h2120VH1VL1; Standard VH + standard VL) VH: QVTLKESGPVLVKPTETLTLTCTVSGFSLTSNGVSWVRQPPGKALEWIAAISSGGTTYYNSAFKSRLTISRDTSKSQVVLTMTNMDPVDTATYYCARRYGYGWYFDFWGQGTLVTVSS VL: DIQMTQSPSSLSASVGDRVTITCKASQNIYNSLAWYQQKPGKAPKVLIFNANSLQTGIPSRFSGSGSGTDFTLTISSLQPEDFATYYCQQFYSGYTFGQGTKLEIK

>  <Fold over rodent (Forte)>
8.8 fold

$$$$
>  <binder>
humanized anti-MCAM antibody h2120_VH4 + h2120_VL3 (antibody, V domains shown, Human IgG1 / human kappa; also called h2120VH4VL3; N-Q deamidate VH + conservative VL) VH: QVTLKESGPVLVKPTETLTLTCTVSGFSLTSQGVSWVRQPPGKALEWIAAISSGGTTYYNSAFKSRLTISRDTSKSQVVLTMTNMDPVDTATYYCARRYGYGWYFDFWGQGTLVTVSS VL: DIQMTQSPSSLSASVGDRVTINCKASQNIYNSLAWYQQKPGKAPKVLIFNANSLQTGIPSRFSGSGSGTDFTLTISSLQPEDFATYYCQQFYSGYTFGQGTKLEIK

>  <Fold over rodent (Forte)>
17.4 fold

$$$$
>  <binder>
humanized anti-MCAM antibody h2120_VH1 + h2120_VL3 (antibody, V domains shown, V regions cloned into vectors containing human CK (VL) or human IgG1 (VH); also called h2120VH1VL3; Standard VH + conservative VL) VH: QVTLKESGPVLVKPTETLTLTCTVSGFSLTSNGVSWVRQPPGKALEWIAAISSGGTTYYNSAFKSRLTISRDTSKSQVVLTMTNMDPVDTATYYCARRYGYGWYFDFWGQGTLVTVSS VL: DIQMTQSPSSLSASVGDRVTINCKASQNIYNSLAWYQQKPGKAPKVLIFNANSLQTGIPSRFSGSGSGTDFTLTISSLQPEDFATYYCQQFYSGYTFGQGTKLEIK

>  <Fold over rodent (Forte)>
5.9 fold

$$$$
>  <binder>
humanized anti-MCAM antibody h2120_VH5 + h2120_VL3 (antibody, V domains shown, Human IgG1 / human kappa; also called h2120VH5VL3; VH5VL3) VH: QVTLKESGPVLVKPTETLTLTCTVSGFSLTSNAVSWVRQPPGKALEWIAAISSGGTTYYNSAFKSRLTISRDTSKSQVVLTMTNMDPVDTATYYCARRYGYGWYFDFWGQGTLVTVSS VL: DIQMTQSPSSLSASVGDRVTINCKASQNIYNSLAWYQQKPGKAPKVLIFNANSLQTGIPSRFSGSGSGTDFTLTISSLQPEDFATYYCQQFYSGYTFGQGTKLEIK

>  <Fold over rodent (Forte)>
1.1 fold

$$$$

Ref: patent US20170101470A1
